Tested on: HACAT
assayMethodText: qHTS assay to identify novel small-molecules to repurpose for Merkel cell carcinoma treatment (AID 1296009); further: nearly all actives have a fitted effect of over 60% in size
testContext: MCC and control cell lines, CellTiter-Glo viability, 72 h; at 44.8 µM (top of the series) unless noted
Records with an inconclusive call do not appear. Active and inactive are the calls of the source. The call rests on the fitted dose curve; in most records, active means well fitted inhibition curve with a large enough effect; inconclusive means small, poorly fitted or top-dose-only effect; inactive means flat fitted curve, though single readings scatter.
readoutType: outcome

1) C=CC1C(O[C@@H]2O[C@H](CO)[C@@H](O)[C@H](O)[C@H]2O)OC=C(C(=O)OC)C1CC(=O)O (some centres undefined) ... inactive [at 17.4 µM]
2) CC1(C)CC[C@]2(C(=O)O[C@@H]3O[C@H](CO)[C@@H](O)[C@H](O)[C@H]3O)CC[C@]3(C)C(=CCC4[C@@]5(C)C[C@@H](O)[C@H](O)C(CO)(CO)C5CC[C@]43C)C2[C@@H]1O (some centres undefined) ... inactive [at 17.4 µM]
3) COc1ccc2cc(OCC3(C(=O)O)CN(C(=O)c4ccc(F)cc4)C3)ccc2c1 ... inactive
4) CC(C)=CC/C=C(/C)[C@H]1CC[C@]2(C)[C@@H]1[C@H](O)CC1[C@@]3(C)CC[C@H](O)C(C)(C)[C@@H]3[C@@H](O[C@@H]3O[C@H](CO)[C@@H](O)[C@H](O)[C@H]3O[C@@H]3O[C@@H](C)[C@H](O)[C@@H](O)[C@H]3O)C[C@]12C (some centres undefined) ... inactive [at 17.4 µM]
5) C[C@@H]1O[C@@H](OC[C@H]2O[C@@H](OCC3CCC4CC3C4(C)C)[C@H](O)[C@@H](O)[C@@H]2O)[C@H](O)[C@H](O)[C@H]1O (some centres undefined) ... inactive [at 17.4 µM]
6) CC(C)(C)c1cc(CN2CCN(CC(O)c3ccc(Cl)cc3)CC2)cc(C(C)(C)C)c1O (centres undefined) ... inactive
7) CC12CCC3C(C)(C)C(O)CCC3(C)C1Cc1c(oc(C(=O)O)cc1=O)O2 (centres undefined) ... inactive
8) CC(C)c1cc2c(c(O)c1O[C@@H]1O[C@H](CO)[C@@H](O)[C@H](O)[C@H]1O)CC1(O)CCC(O)C(C)(C)C1CC2 (some centres undefined) ... inactive [at 17.4 µM]
9) CNC(=O)O[C@H]1COc2ccc(N3CCN(C4COC4)CC3)cc2[C@@H]1NC(=O)c1ccc(F)cc1 ... inactive
10) NC(Cc1c[nH]c2ccccc12)C(=O)NC(CCC(=O)O)C(=O)O (centres undefined) ... inactive
11) O=C(O)c1ccc(CCCc2ccc(OCCc3ccc(F)cc3)cc2)o1 ... inactive
12) CC1(C)CC[C@]2(C(=O)O[C@@H]3O[C@H](CO)[C@@H](O)[C@H](O)[C@H]3O)CC[C@]3(C)C(=CCC4[C@@]5(C)C[C@@H](O)[C@H](O)[C@@](C)(CO)C5CC[C@]43C)C2C1 (some centres undefined) ... inactive [at 17.4 µM]
13) CC(=O)OC(C)OC(=O)C(C)c1ccc(-c2ccccc2)c(F)c1 (centres undefined) ... inactive
14) CC1(CO)CC2C(O)C(=O)C3(CO)CC3(C)C2C1 (centres undefined) ... inactive
15) CC(O)C(O)/C=C/C=C/C(=O)O[C@@H]1C=C2COC(=O)[C@]2(O)[C@@]2(C)CCCC(C)(C)C12 (some centres undefined) ... inactive [at 17.4 µM]
16) CNC(=O)Nc1ccc(OC)c(NC(=O)NC(=O)c2cc(F)c(F)cc2Cl)c1 ... inactive
17) Oc1ccc([C@H]2COc3cc(O)ccc3C2)cc1 ... inactive
18) COC(=O)C1=COC(OC2OC(CO)C(O)C(O)C2O)C2C1CC(OC(=O)C(O)CC(=O)O)C2C (centres undefined) ... inactive [at 17.4 µM]
19) CO[C@@H](Cc1ccc(OCCc2nc(-c3ccccc3)oc2C)c2ccsc12)C(=O)O ... inactive
